B1: glmS ribozyme (parent)
chain: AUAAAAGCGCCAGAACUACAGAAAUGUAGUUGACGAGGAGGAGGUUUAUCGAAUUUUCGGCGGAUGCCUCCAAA

Variants of: B1
Experiment Summary: self-cleavage kobs at 2500 uM GlcN6P; higher = faster cleavage; RNA array
Run Conditions: with glucosamine-6-phosphate
This sample holds only a part of the variants without activity.
Label rule, in plain words: self-cleavage kobs at 2500 uM GlcN6P of 0.0002 s⁻¹ and up is Yes, under 0.0002 s⁻¹ is No.

Seq	Assigned Label
AUAAAAGUGCCAGAACUACAGAAAUGUAGUUGACGAGGAUGAUGUUUAUCGAAUUUUCGGCGGAUGCCUCCAAA [C8U G40U G43U]	No
AUAAAAGCACCAGAGCUACAGAAAUUUAGUUGACGAGGAGGAGGUUUAUCGAAUUUUCGGCGGAUGCCUCCAAA [G9A A15G G26U]	No
AUAAAAGCGCCAGAACUACAGAAAUGUAGUUGACGAGGAGGAGGUUUAUUGAAUUUUCAGCGGAUGCCUCCAAA [C50U G59A]	No

-- ask Could you tell me if the measured self-cleavage kobs at 2500 uM GlcN6P of AUAAAAUCGCCAGAACUACAGAAAUGUAGUUGACGAGGAAGAGGUUUAUCGAAUUUUCGUCGGAUGCCUCCAAA [G7U G40A G60U] reaches 0.0002 s⁻¹ or more?
-- reply No
